Below are pKi values for Coagulation factor X (Homo sapiens, UniProt P00742) collected from several publications.
pKi: −log10 of the molar value.
Parameter: pKi

In [3]: df
Out[3]:
                                    molecule                              study_system  comparative_sign  experimental_value
 0  Cc1ccc(NS(=O)(=O)Cc2ccccc2)c(=O)n1CC(=O)NCC1CCc2nc(N)ncc2C1 (configuration not stated)  Coagulation factor X (Homo sapiens, UniProt P00742)                 =                4.06
 1  CC(=N)N1CCC(Oc2ccc3c(c2)ncn3Cc2ccc3ccc(C(=N)N)cc3c2)CC1  Coagulation factor X (Homo sapiens, UniProt P00742)                 =                8.20
 2  Cc1c(F)c(Oc2cccc(Cl)c2)nc(Oc2cccc(C(=N)N)c2)c1F  Coagulation factor X (Homo sapiens, UniProt P00742)                 =                5.77
 3  COc1ccc(-c2cccc(S(=O)(=O)N[C@@H](Cc3cccc(C(=N)N)c3)C(=O)N3CCN(C(=O)OC(C)(C)C)CC3)c2)c(OC)c1  Coagulation factor X (Homo sapiens, UniProt P00742)                 =                7.28
 4  C/C(=C(\F)C(=O)Nc1ccc(-c2ccccc2S(N)(=O)=O)cc1Br)c1ccc2ccnc(N)c2c1  Coagulation factor X (Homo sapiens, UniProt P00742)                 =                8.89
 5  CCOC(=O)c1nn(-c2ccc(OC)cc2)c2c(=O)n(-c3ccc(-c4ccccc4CN4CCCC4)cc3F)cnc12  Coagulation factor X (Homo sapiens, UniProt P00742)                 =                8.44
 6  Cc1ccc(NC(=O)c2sc(C)nc2C)c(C(=O)Nc2ccc(Cl)cc2)c1  Coagulation factor X (Homo sapiens, UniProt P00742)                 =                6.68
 7  Cc1c(C(=O)Nc2ccc(Cl)cc2C(=O)Nc2ccc(Cl)cc2)sc2ccccc12  Coagulation factor X (Homo sapiens, UniProt P00742)                 =                9.09
 8  Cc1ccc2ccc(S(=O)(=O)N[C@H]3CCN(Cc4cccc(C(=N)N)c4)C3=O)cc2c1  Coagulation factor X (Homo sapiens, UniProt P00742)                 =                7.00
 9  O=C(CN1CCN(S(=O)(=O)c2cc3ccc(Cl)cc3s2)CC1=O)Nc1cccnc1  Coagulation factor X (Homo sapiens, UniProt P00742)                 <                5.92
10  CC(C)(C)[C@@H](O)C(=O)N1CCOC[C@H]1C(=O)NCc1cc(Cl)ccc1CN.O=C(O)C(F)(F)F  Coagulation factor X (Homo sapiens, UniProt P00742)                 =                5.41
11  COc1ccc(-n2nc(C)cc2C(=O)Nc2ccc(-c3ccccc3S(N)(=O)=O)cc2F)cc1  Coagulation factor X (Homo sapiens, UniProt P00742)                 =                8.28

---

pKi: −log10 of the molar value.
Below are pKi values for Coagulation factor X (Homo sapiens) collected from several publications.
Parameter: pKi

                                    compound  comparative_sign  experimental_value
 0  Cc1cc(NC(=O)OCC(Oc2cccc3sc(C(=N)N)cc23)c2ccccc2)n(C)n1 (stereo not drawn)                 =                5.69
 1  N=C(N)c1ccc2c(c1)[C@@H](c1ccccc1)C[C@@H](c1ccccc1-c1ccccc1C(=O)O)N2 (racemic)                 =                5.71
 2  Cc1c(F)c(Oc2cccc(C(=N)N)c2)cc(Oc2cccc(C(=N)N)c2)c1F                 =                7.92
 3  Cc1cc(C(=O)Nc2ccc(C(=N)N3CCCC3)cc2F)n(-c2cc3ccccc3cc2F)n1                 =                8.39
 4  Cc1ccc(NC(=O)c2sc3ccccc3c2Cl)c(C(=O)Nc2cccc(Cl)c2)c1                 =                6.59
 5  O=C(CN1CCN(S(=O)(=O)c2cc3ccc(Cl)cc3s2)CC1=O)NCc1cccnc1                 <                5.92
 6  CN(C)CCCN(C)Cc1csc(C(=O)Nc2ccc(Cl)cc2C(=O)Nc2ccc(Cl)cc2)c1Cl                 =                9.22
 7  CC(C)(C)NC(=O)NC1CCN(C(=O)[C@H](Cc2cccc(C(=N)N)c2)NS(=O)(=O)c2cccc(-c3ccc(C(=N)N)cc3)c2)CC1                 =                7.08
 8  N=C(N)c1ccc(CNC(=O)C(CCC2CCNCC2)NC(=O)[C@@H](CC2CCCCC2)NCC(=O)O)cc1 (mixture of isomers)                 <                4.37
 9  C[C@@H](C(=O)N1CCOCC1)N1CC[C@H](NS(=O)(=O)c2cc3cc(Cl)ccc3s2)C1=O                 =                7.33
10  C[C@H](NC(=O)c1cc2cc(OCc3ccccc3)ccc2n1Cc1cccc(C(=N)S)c1)c1ccccc1                 =                5.32
11  N=C(N)c1ccc(/C=C2\CCCCCC/C(=C\c3ccc(C(=N)N)cc3)C2=O)cc1                 =                6.41
12  Cc1cc(Cl)cc(C(=O)Nc2ccc(Cl)cc2)c1NC(=O)c1sc2ccccc2c1Cl                 =                8.74
13  N=C(N)c1cccc(Cn2c(C(=O)NCC(=O)Nc3ccc4ccccc4c3)cc3c(O)cccc32)c1                 =                5.62
14  COc1cccc(S(=O)(=O)NC2CCCN(c3ccc(-c4ccccc4S(C)(=O)=O)cc3F)C2=O)c1 (stereo not drawn)                 =                7.00
15  CN1CC(C)(COc2ccc(C(=N)N)cc2)Oc2ccc(N(Cc3cc(F)cc(F)c3)C(=O)C(=O)O)cc21 (stereo not drawn)                 =                4.85
16  CC(C)C(=O)NCc1nc(Cc2ccccc2)n(CC(=O)N[C@@H](CCCCN)B2O[C@@H]3C[C@@H]4C[C@@H](C4(C)C)[C@]3(C)O2)n1                 <                5.22
17  NC[C@H]1CC[C@H](C(=O)N[C@@H](Cc2ccccc2)c2nc(-c3cccc(CC(=O)O)c3)c[nH]2)CC1                 <                5.09

---

Below are pKi values for UniProt:P00742 collected from several publications.
pKi: −log10 of the molar value.
Label scheme for pKi: lower than 7 is NOT MET, 7 and above is MET.

>>> df
                                    compound    study_system  category_label
 0  COc1ccc(C(=N)N)c(OC)c1Oc1nc(Oc2cccc(N(C)C)c2)c(F)c(C)c1F  UniProt:P00742         NOT MET
 1  COC(=O)Cc1nc(Cc2ccccc2)n(CC(=O)N[C@@H](CCCCN)B2O[C@@H]3C[C@@H]4C[C@@H](C4(C)C)[C@]3(C)O2)n1  UniProt:P00742         NOT MET
 2  Cc1ccc(NS(=O)(=O)Cc2ccc(F)cc2)c(=O)n1CC(=O)NC1CCc2nc(N)sc2C1 (centres undefined)  UniProt:P00742         NOT MET
 3  CCc1nc2c(N(CC(=O)O)CC(=O)O)c(OC3CCN(C(C)=N)CC3)ccc2n1Cc1ccc2ccc(C(=N)N)cc2c1  UniProt:P00742             MET
 4  N=C(N)c1cccc(CNC(=O)c2c(Br)c3ccccc3n2Cc2cccc(C(=N)N)c2)c1  UniProt:P00742             MET
 5  N=C(N)c1cccc(C[C@H](NS(=O)(=O)c2cccc(NC(=O)CCN)c2)C(=O)N2CCCC(C(N)=O)C2)c1 (some centres undefined)  UniProt:P00742         NOT MET
 6  CN(CC(=O)N[C@@H](CCCCN)C(=O)C(=O)Nc1ccccc1)C(=O)c1ccccc1Sc1ccccc1C#N  UniProt:P00742             MET
 7  Cc1cc(C(=O)Nc2ccc(-c3ccccc3S(C)(=O)=O)cc2F)n(-c2ccc3cc(Cl)ccc3c2)n1  UniProt:P00742             MET
 8  COc1ccc(-n2nc(C(N)=O)c3ncn(-c4ccc(-c5ccccc5S(N)(=O)=O)cc4)c(=O)c32)cc1  UniProt:P00742             MET
 9  CC1(C)[C@@H]2C[C@H]3OB([C@H](CCCCN)NC(=O)Cn4nc(-c5cccc(N)c5)nc4Cc4ccccc4)O[C@@]3(C)[C@H]1C2  UniProt:P00742         NOT MET
10  CS(=O)(=O)c1ccc(COc2cccc(NC(=O)C3CCN(c4ccncc4)CC3)c2)cc1  UniProt:P00742         NOT MET
11  CC(C)c1cc(C(C)C)c(S(=O)(=O)N[C@@H](Cc2cccc(C(=N)N)c2)C(=O)N2CCCN(C(=O)C3CCN(C(=N)N)CC3)CC2)c(C(C)C)c1  UniProt:P00742         NOT MET
12  N=C(N)c1cccc(Cn2c(C(=O)NCCc3ccc(Cl)cc3Cl)cc3c(O)cccc32)c1  UniProt:P00742         NOT MET
13  O=C(CN1CCN(S(=O)(=O)c2cc3ccc(Cl)cc3s2)CC1=O)NCCc1cnc[nH]1  UniProt:P00742             MET
14  Nc1ccc(CNC(=O)CNC(=O)C(CCc2cccc[n+]2[O-])NS(=O)(=O)Cc2ccccc2)cn1 (centres undefined)  UniProt:P00742             MET
15  COc1ccc(-n2nc(C(N)=O)c3c2C(=O)N(c2ccc(C(C)(C)O)cc2)CC3)cc1  UniProt:P00742             MET
16  COc1cccc(COc2cccc(NC(=O)C3CCN(c4ccncc4)CC3)c2)c1  UniProt:P00742         NOT MET
17  C[C@@H](C(=O)N1CCOCC1)N1CC[C@H](NS(=O)(=O)c2cc3ccc(Cl)cc3o2)C1=O  UniProt:P00742         NOT MET
18  CCS(=O)(=O)c1ccc2cc1CNC(=O)[C@H](Nc1ccc(C(=N)N)cc1)c1ccc(cc1)CCCC(=O)N2  UniProt:P00742         NOT MET
19  N=C(N)c1ccc2[nH]cc(CC(=O)Nc3ccc(-c4ccccc4S(N)(=O)=O)cc3F)c2c1  UniProt:P00742             MET
20  N=C(N)c1cccc(CN2CC[C@H](NS(=O)(=O)c3cccc4ccccc34)C2=O)c1  UniProt:P00742         NOT MET
21  CCOc1cc([C@@H](Nc2ccc3cnccc3c2)C(=O)NS(=O)(=O)c2cccc(S(N)(=O)=O)c2)ccc1OC(C)C  UniProt:P00742         NOT MET
